# Measurement Target: T1, hVISTA-ECD 6-His tag (human, UniProt Q9H7M9 33-193)
# T1 construct: also called monovalent hVISTA-ECD; human VISTA
# T1 sequence (Q9H7M9 other isoform, or with tags, fused parts or gaps limits assumed): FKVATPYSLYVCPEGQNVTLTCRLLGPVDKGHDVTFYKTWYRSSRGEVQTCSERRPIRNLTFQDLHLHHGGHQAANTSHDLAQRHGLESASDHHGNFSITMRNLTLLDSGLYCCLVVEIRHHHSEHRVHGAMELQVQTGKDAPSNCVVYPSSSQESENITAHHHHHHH
# Assay Notes: SPR, Ab on Protein A, hVISTA analyte, pH 6.9
Readout Name: Kd (nM)
One number for each entry, in nM.

Binder	Kd [nM]
P1-061520 (41F11 VK_A64G) (antibody, V domains shown, also called P1-061520-21; VISTA.4.A64G) VH: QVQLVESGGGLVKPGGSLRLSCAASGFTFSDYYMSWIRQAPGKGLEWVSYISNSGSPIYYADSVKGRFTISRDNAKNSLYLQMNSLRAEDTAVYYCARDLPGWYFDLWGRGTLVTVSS VL: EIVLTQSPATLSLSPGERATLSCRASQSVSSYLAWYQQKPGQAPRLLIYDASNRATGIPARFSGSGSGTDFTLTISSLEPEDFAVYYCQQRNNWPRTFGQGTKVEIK	2.15
P1-068744 (antibody, human IgG1, kappa, V domains shown, also called P1-068744-7) VH: QVQLVESGGGVVQPGRSLRLSCAASGFTFSEYAMHWVRQAPGKGLEWVAHIWYDGSNKYEADSVKGRFTISRDNSKNTLYLQMNSLRAEDTAVYYCARDSGFYESYYFDEWGQGTLVTVSS VL: EIVLTQSPATLSLSPGERATLSCRASQSVSSSYLAWYQQKPGQAPRLLIYDASNRATGIPARFSGSGSGTDFTLTISSLEPEDFATYYCQQYNSYPYTFGQGTKLEIKR	4800
P1-070976 (41F11_VH_T28P_Y50W_S55E_D95H_L96E_P97E_Y100E; Vk_A64G) (antibody, V domains shown, They look like Kabat positions on the mature VH, but no numbering scheme is stated; also called P1-070976-11) VH: QVQLVESGGGLVKPGGSLRLSCAASGFPFSDYYMSWIRQAPGKGLEWVSWISNSGEPIYYADSVKGRFTISRDNAKNSLYLQMNSLRAEDTAVYYCARHEEGWEFDLWGRGTLVTVSS VL: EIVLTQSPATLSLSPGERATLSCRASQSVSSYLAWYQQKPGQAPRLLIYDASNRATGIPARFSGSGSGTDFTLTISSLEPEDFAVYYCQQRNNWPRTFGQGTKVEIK	970

Turning to the following binder.
**Query** Can you share its Kd? I mean this binder: P1-068748 (antibody, human IgG1, kappa, V domains shown, also called P1-068748-6) VH: QVQLVESGGGVVQPGRSLRLSCAASGFTFSHHAMHWVRQAPGKGLEWVAIIWYDGSNDDYADSVKGRFTISRDNSKNTLYLQMNSLRAEDTAVYYCARDSGFYDSYYFDYWGQGTLVTVSS VL: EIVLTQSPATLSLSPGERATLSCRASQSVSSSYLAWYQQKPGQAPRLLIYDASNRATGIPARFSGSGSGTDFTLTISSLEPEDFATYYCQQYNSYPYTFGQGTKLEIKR
**Result** 220
